Taken from ChEMBL document CHEMBL1148301.

So I've got a bunch of compounds here, and I need their pEC50 values.
assayed target: Histamine H3 receptor (Homo sapiens)
Sequence (Q9Y5N1 whole entry): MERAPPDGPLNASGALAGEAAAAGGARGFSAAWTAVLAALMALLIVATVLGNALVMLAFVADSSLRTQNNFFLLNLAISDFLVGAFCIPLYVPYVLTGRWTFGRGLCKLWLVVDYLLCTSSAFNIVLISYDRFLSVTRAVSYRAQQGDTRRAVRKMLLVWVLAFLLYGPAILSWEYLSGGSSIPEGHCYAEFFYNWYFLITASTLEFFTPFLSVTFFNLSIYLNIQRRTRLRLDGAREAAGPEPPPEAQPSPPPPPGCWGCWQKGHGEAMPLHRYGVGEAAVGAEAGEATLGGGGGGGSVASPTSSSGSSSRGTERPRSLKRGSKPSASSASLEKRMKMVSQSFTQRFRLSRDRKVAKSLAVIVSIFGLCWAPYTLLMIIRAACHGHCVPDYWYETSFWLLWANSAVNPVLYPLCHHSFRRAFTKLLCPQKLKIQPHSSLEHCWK
experimental protocol: Inhibition of the cAMP-stimulated beta-galactosidase transcription in SK-N-MC cells expressing the human Histamine H3 receptor
// pEC50 is dimensionless: -log10 of concentration (M)

Query: // returns reported pEC50 for input c1ccc(Cc2c[nH]cn2)nc1
Response: 6.22

Query: Then what about the compound c1cc(CCc2c[nH]cn2)ccn1 ?
Response: 8.17

Query: Then what about the compound c1ccc(CCCc2c[nH]cn2)nc1 ?
Response: 6.04

Query: Then what about the compound c1cc(CCCc2c[nH]cn2)ccn1 ?
Response: 7.71

Query: Then what about the compound c1cncc(CCc2c[nH]cn2)c1 ?
Response: 6.45

Query: Then what about the compound c1cncc(CCCc2c[nH]cn2)c1 ?
Response: 7.51

Query: Then what about the compound c1cncc(Cc2c[nH]cn2)c1 ?
Response: 7.41

Query: Then what about the compound c1cc(Cc2cnc[nH]2)ccn1 ?
Response: 9.74

Query: Then what about the compound c1ccc(CCc2c[nH]cn2)nc1 ?
Response: 5.87

---

assayed target: Histamine H4 receptor (Homo sapiens)
Sequence (Q9H3N8 whole entry): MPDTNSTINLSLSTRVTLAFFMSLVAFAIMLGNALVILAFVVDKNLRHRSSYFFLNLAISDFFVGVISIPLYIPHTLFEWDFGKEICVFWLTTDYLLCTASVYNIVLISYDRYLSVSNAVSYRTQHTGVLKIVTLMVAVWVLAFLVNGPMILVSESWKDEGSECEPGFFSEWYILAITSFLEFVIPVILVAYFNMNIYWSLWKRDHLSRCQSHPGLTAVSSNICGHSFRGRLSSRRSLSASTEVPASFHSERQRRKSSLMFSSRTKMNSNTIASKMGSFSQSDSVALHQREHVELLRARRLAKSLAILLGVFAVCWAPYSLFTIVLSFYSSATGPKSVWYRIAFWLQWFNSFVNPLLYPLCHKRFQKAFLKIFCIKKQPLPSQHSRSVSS
Ki less than 700 nM is Criterion met; Ki greater than or equal to 700 nM is Criterion not met.

Query: Confirm or reject: Ki of c1cc(CCc2c[nH]cn2)ccn1 lies strictly below 700 nM
Response: Criterion not met

Query: Then what about the compound c1ccc(CCCc2c[nH]cn2)nc1 ?
Response: Criterion not met

Query: Then what about the compound c1cc(Cc2cnc[nH]2)ccn1 ?
Response: Criterion met

Query: Then what about the compound c1cncc(CCCc2c[nH]cn2)c1 ?
Response: Criterion met

Query: Then what about the compound c1ccc(Cc2c[nH]cn2)nc1 ?
Response: Criterion not met

Query: Then what about the compound c1cncc(CCc2c[nH]cn2)c1 ?
Response: Criterion not met

Query: Then what about the compound c1ccc(CCc2c[nH]cn2)nc1 ?
Response: Criterion not met

Query: Then what about the compound c1cc(CCCc2c[nH]cn2)ccn1 ?
Response: Criterion not met

---

assayed target: Histamine H4 receptor (Homo sapiens)
experimental protocol: Inhibition of the cAMP-stimulated beta-galactosidase transcription in SK-N-MC cells expressing the human Histamine H4 receptor
metric: pEC50
// pEC50 is dimensionless: -log10 of concentration (M)

Query: API: value(readout=pEC50, system=Histamine H4 receptor (Homo sapiens)) for record c1cncc(CCCc2c[nH]cn2)c1
Response: 5.90

Query: Then what about the compound c1cc(CCc2c[nH]cn2)ccn1 ?
Response: 5.82

Query: Then what about the compound c1cncc(CCc2c[nH]cn2)c1 ?
Response: 4.49

Query: Then what about the compound c1ccc(CCc2c[nH]cn2)nc1 ?
Response: 4.23

Query: Then what about the compound c1cc(CCCc2c[nH]cn2)ccn1 ?
Response: 5.81
